Would you kindly list pIC50 for each of these compounds?
study.system: Cholinesterase (Homo sapiens, UniProt P06276)
Sequence (P06276 whole entry): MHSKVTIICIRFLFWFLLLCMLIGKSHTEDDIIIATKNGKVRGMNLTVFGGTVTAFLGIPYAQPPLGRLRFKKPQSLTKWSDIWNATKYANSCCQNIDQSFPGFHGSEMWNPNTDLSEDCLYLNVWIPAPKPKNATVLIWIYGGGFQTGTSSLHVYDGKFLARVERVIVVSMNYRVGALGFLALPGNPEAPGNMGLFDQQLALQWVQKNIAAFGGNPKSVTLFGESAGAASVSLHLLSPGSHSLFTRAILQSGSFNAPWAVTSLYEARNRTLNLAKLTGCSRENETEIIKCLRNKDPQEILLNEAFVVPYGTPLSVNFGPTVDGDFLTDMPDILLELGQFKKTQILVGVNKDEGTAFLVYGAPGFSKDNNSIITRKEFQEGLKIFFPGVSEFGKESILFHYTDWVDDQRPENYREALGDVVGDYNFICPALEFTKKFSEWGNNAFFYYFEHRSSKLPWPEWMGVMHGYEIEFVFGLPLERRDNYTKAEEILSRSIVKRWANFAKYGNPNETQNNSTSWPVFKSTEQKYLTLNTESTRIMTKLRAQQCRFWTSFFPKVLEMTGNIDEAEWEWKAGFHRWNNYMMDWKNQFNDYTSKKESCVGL
One number for each entry, as −log10 of the molar value.

INSERT INTO assay_data (molecular_string, quantity_kind, result) VALUES
  ('COc1ccc2nc3c(c(N4CCCCCN(c5c6c(nc7ccc(OC)cc57)CCCC6)CCCCC4)c2c1)CCCC3', 'pIC50', 3.18);

Query :: # get_value(readout='pIC50', item= C=CCCCNc1c2c(nc3ccc(OC)cc13)CCCC2 )
Result :: 5.96

---

What follows is a record of IC50 for Acetylcholinesterase (Homo sapiens).
Give bare numbers, in µM.

INSERT INTO assay_data (molecular_string, study_system, result) VALUES
  ('COc1ccc2nc3c(c(N4CCCCCN(c5c6c(nc7ccc(OC)cc57)CCCC6)CCCCC4)c2c1)CCCC3', 'Acetylcholinesterase (Homo sapiens)', 4.6);

Field: next compound
Query :: # get_value(readout='IC50', item= C=CCCCNc1c2c(nc3ccc(OC)cc13)CCCC2 )
Result :: 2.2

Each recorded value in this set is attributed to ChEMBL document CHEMBL1914376.
